Assay: in vitro
Details: dog
parameter: CC50 (µM)
Answer format: numeric, µM implied, no suffix.

>  <molecule>
Cc1ccc(C(c2c(O)c3ccccc3oc2=O)c2c(O)c3ccccc3oc2=O)cc1 [PB2-35]

>  <CC50 (µM)>
50

$$$$

Note: attention shifts to another entry.
Query block: Value lookup for CC50; key = Cc1cc(C(=O)Nc2ccc(I)cc2C(=O)O)ccc1[N+](=O)[O-] [PB2-19]
Result block: 150
